Target chain: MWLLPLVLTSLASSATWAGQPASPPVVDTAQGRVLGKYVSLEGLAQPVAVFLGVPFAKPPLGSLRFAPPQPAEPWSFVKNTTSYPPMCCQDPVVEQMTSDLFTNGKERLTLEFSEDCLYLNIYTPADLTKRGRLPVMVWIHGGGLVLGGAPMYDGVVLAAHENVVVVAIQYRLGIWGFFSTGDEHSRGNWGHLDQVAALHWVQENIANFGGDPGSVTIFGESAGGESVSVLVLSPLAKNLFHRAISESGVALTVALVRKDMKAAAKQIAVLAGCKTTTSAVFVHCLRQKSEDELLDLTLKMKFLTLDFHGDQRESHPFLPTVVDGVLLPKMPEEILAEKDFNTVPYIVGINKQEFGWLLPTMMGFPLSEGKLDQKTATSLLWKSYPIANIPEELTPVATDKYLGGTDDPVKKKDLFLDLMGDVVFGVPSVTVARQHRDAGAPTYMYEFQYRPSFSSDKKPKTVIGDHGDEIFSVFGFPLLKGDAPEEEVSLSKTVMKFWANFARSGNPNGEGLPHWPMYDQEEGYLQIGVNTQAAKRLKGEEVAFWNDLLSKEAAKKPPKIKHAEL
Measured property: log10 of IC50 (log10 of the value in µM)
# log10 transformed; quantity=IC50; unit=µM

O=C(C1=NNc2ncnn2C1(O)C(F)(F)C(F)(F)C(F)(F)F)c1ccccc1 (stereo not given)
1.73
COC(=O)C1=NNc2ncnn2C1(O)C(F)(F)C(F)(F)C(F)(F)C(F)(F)F (stereo not given)
1.03
COC(=O)C1=NNc2cc(-c3ccccc3)nn2C1(O)C(F)(F)C(F)(F)C(F)(F)C(F)(F)F (stereo not given)
-0.02

QUERY: I would be grateful if you could share the reported log10 of IC50 for CCOC(=O)C1=NNc2cc(C)nn2C1(O)C(F)(F)C(F)(F)C(F)(F)C(F)(F)F (stereo not given) .
RESULT: 0.16

QUERY: I would be grateful if you could share the reported log10 of IC50 for CCOC(=O)C1=NNc2ncnn2C1(O)C(F)(F)C(F)(F)C(F)(F)C(F)(F)F (stereo not given) .
RESULT: -0.01

QUERY: I would be grateful if you could share the reported log10 of IC50 for CCOC(=O)c1cnn2c1NN=C(C(=O)OC)C2(O)C(F)(F)C(F)(F)C(F)(F)F (stereo not given) .
RESULT: 1.58
